# PROTOCOL: LTI-291-002 multiple ascending dose study: plasma and CSF pharmacokinetics
# Format: in vivo, human
# SETTINGS: human, plasma, oral, 60 mg, 60 mg daily, dose 7, geometric mean; read-out: AUC0-24
MEASUREMENT TYPE: AUC(0-t) (ng·h/mL)
Kindly provide the numeric value in ng·h/mL only, without the unit symbol.

Qu. Suppose we examine the compound `CCCCCO[C@H]1CC[C@H](NC(=O)c2cnn3c(C)cc(C)nc23)CC1` ; what AUC(0-t) value has been reported?
Ans. 52100

###

# PROTOCOL: LTI-291-002 multiple ascending dose study: plasma and CSF pharmacokinetics
# Format: in vivo, human
# SETTINGS: human, plasma, oral, 60 mg, 60 mg daily, dose 1, geometric mean
# Protocol: This study was a phase 1, randomized, double-blind, placebo-controlled, multiple ascending dose study of Compound A in 4 cohorts of middle-aged to elderly healthy participants (aged 52 to 75 years). […] Pharmacokinetic parameters were determined for each dose at Day 1, Day 7, and Day 14. Cerebrospinal fluid samples for Compound A concentrations were measured before the first dose and 4 hours after the last dose for each dose level. […]
MEASUREMENT TYPE: Cmax (ng/mL)
Kindly provide the numeric value in ng/mL only, without the unit symbol.

Qu. Suppose we examine the molecule `CCCCCO[C@H]1CC[C@H](NC(=O)c2cnn3c(C)cc(C)nc23)CC1` ; what Cmax value has been reported?
Ans. 1950
